Measured ∆GKd for CaM, listed per entry.
Biological target: calmodulin (CaM) (Homo sapiens)
Construct: made in house; host or cells: E. coli
Assay: Peptide titrations by CaM followed by tryptophan fluorescence, and ITC (Kd for CaM)
Assay type: binding
Conditions: ΔGKd = RTln(Kd); S.D. within ± 10%
Number only, in kcal/mol; omit the unit.

Study these solved cases before continuing.
{"Substance": "Ac-ASAHWGQRALQGAQAVAAAQRLVHAIAAMTQ-NH2 [P454 L481A]", "Measure": "∆GKd for CaM", "Assay Result": -9.6}
{"Substance": "Ac-ASAHWGQQALQGAQAVAAAQRLVHAIALMTQ-NH2 [P454 R1Q]", "Measure": "∆GKd for CaM", "Assay Result": -9.5}
{"Substance": "Ac-ASAHWGQRALQGAQAVAAAQRLVHALALMTQ-NH2 [P454 I479L]", "Measure": "∆GKd for CaM", "Assay Result": -9.8}
{"Substance": "Ac-ASAHWGQKALQGAQAVAAAQKLVHAIALMTQ-NH2 [P454 R12K]", "Measure": "∆GKd for CaM", "Assay Result": -9.9}
{"Substance": "Ac-ASAHWGQRAAQGAQAVAAAQRAVSAAALMTQ-NH2 [P454 L463A-L475A-H477S-I479A]", "Measure": "∆GKd for CaM", "Assay Result": -6.8}
{"Substance": "Ac-ASAHAGQRALQGAQAVAAAQRLVHAAALMTQ-NH2 [P454 W458A-I479A]", "Measure": "∆GKd for CaM", "Assay Result": -7.7}

Field ∆GKd for CaM (system: calmodulin (CaM) (Homo sapiens)) for entry Ac-ASAHWGQRALQGAQAVAAAQRAVHAIALMTQ-NH2 [P454 L475A] = -9.4

Field ∆GKd for CaM (system: calmodulin (CaM) (Homo sapiens)) for entry Ac-ASAHWGQRALQGAQAVAAAQQLVHAIALMTQ-NH2 [P454 R2Q] = -9.2

Field ∆GKd for CaM (system: calmodulin (CaM) (Homo sapiens)) for entry Ac-ASAHWGQRALQGAQAVAAAQRLVHAAALMTQ-NH2 [P454 I479A] = -7.9

Field ∆GKd for CaM (system: calmodulin (CaM) (Homo sapiens)) for entry Ac-ASAHWGQRAAQGAQAVAAAQRLVHAIALMTQ-NH2 [P454 L463A] = -9.1

Field ∆GKd for CaM (system: calmodulin (CaM) (Homo sapiens)) for entry Ac-ASAHWGQRALQGAQAVAAAQRAVSAAALMTQ-NH2 [P454 L475A-H477S-I479A] = -7.9

Field ∆GKd for CaM (system: calmodulin (CaM) (Homo sapiens)) for entry Ac-ASAHAGQRAAQGAQAVAAAQRLVHAIALMTQ-NH2 [P454 W458A-L463A] = -8.4

Field ∆GKd for CaM (system: calmodulin (CaM) (Homo sapiens)) for entry Ac-ASAHWGQRALQGAQAVAAAQRLVSAIALMTQ-NH2 [P454 H477S] = -9.1

Field ∆GKd for CaM (system: calmodulin (CaM) (Homo sapiens)) for entry Ac-ASAHWGQRALQGAQAVAAAQRLVSAAALMTQ-NH2 [P454 H477S-I479A] = -8.0

Field ∆GKd for CaM (system: calmodulin (CaM) (Homo sapiens)) for entry Ac-ASAHWGQRALQGAQAVAAAQRLVHAVALMTQ-NH2 [P454 I479V] = -9.4

Field ∆GKd for CaM (system: calmodulin (CaM) (Homo sapiens)) for entry Ac-ASAHWGQQALQGAQAVAAAQQLVHAIALMTQ-NH2 [P454 R12Q] = -7.7

Where these numbers come from: paper PMC8097335
